Note to self: these compounds have IC50 reported for Epidermal growth factor receptor (Homo sapiens) in various publications.
Outcome Measure: IC50 (µM)

I = O=S(=O)(CO)Nc1cc2c(Nc3cccc(Br)c3)ncnc2cn1
II = C=CC(=O)Nc1ccc2ncnc(Cc3ccc(F)c(Br)c3)c2c1
Which item exceeds the other in IC50, I or II ? Write down the label of the entry you select. I
(I: 0.0933 µM, II: 0.000692 µM)

a = CC(=O)OCN(C)/N=N/c1ccc2ncnc(Nc3cccc(Br)c3)c2c1
b = COC[C@@H]1CCCN1/N=C/c1c(N)ncnc1Nc1ccc2c(cnn2Cc2cccc(F)c2)c1
In terms of reported IC50, does a or b have the smaller number? Write down the label of the entry you select. b

A = CCS(=O)(=O)N1CCC(c2nc(-c3ccc(F)cc3)c(-c3ccnc(Nc4ccc(N5CCN(C)CC5)c(C)c4)n3)s2)CC1
B = COc1cc2ncnc(Nc3ccc(F)c(Cl)c3)c2cc1OCCN1CC(O)C1
C = OC[C@@H](Nc1ncnc2oc(-c3ccccc3)c(-c3ccccc3)c12)c1ccccc1
Give the ascending ranking of the items by reported IC50. Record the ranking as a list of labels in the requested order. B, A, C

* * *

Note to self: these compounds have IC50 reported for Epidermal growth factor receptor (Homo sapiens, UniProt P00533) in various publications.
Outcome Measure: IC50 (nM)

Smiles Representation: CS(=O)(=O)CCNCc1ccc(-c2ccc3ncnc(Nc4ccc(OCc5ccccc5)c(C(F)(F)F)c4)c3c2)o1
Target System: Epidermal growth factor receptor (Homo sapiens, UniProt P00533)
Outcome Measure: IC50
Numeric Result: 160

I = N=C1NC(=O)/C(=C2/CCNC(=O)c3[nH]c(Br)c(Br)c32)N1
II = CN1CCN(C2CCN(c3ccc(Nc4ncc(Cl)c(Nc5ccccc5P(C)(C)=O)n4)cc3C(F)(F)F)CC2)CC1
III = C=CC(=O)N[C@@H]1CN(c2nc(Nc3cn(C)nc3C)c3ncn(C(C)C)c3n2)C[C@H]1F
IV = COc1cc2c(Nc3ccc(F)c(F)c3)ncnc2cc1OCCOCCOCCNC(=O)Cn1cnc([N+](=O)[O-])n1
V = Cc1ccc(C(=O)Nc2ccc(CN3CCN(C)CC3)c(C(F)(F)F)c2)cc1NC(=O)c1cnc2[nH]ccc2c1
Give the ascending ranking of the items by reported IC50. Record the ranking as a list of labels in the requested order. V, IV, II, III, I
(V: 8 nM, IV: 20 nM, II: 538 nM, III: 1450 nM, I: 21100 nM)

a = O=C(Cc1ccc(Cl)cc1)NS(=O)(=O)c1ccc(F)cc1
b = Cc1cccc(N(C)c2ncnc3cc(C)c(C)cc23)c1
Which item exceeds the other in IC50, a or b ? Write down the label of the entry you select. a
(a: 9590 nM, b: 6500 nM)

P = CCc1c(NC(=O)OCc2ccccc2)cn2ncnc(Nc3ccc4c(cnn4Cc4ccccc4)c3)c12
Q = O=C1CS/C(=N/Nc2nncc3ccccc23)N1
In terms of reported IC50, does P or Q have the smaller number? Write down the label of the entry you select. Q
(Q: 51 nM, P: 210 nM)

a = COc1cc2c(Nc3ccc(-c4nc5ccccc5s4)c(OC)c3)ncnc2cc1OCCCN1CCN(C)CC1
b = COC(=O)c1c(OC)c2ccccc2c2oc3c(c12)C(=O)c1ccccc1C3=O
c = COc1cc2ncnc(-c3c[nH]c4cc(F)c(Cl)cc34)c2cc1OC
d = CCN(CC)CCCNC(=O)/C=C/C(=O)Cc1cc2c(Nc3cccc(Br)c3)ncnc2cn1
Order the records by IC50, with each subsequent value no larger than the one before. Record the ranking as a list of labels in the requested order. b, c, a, d

a = O=C(Nc1ccccc1)c1cc2ccc(O)c(O)c2cn1
b = CC(C)c1ccc(C(=O)Nc2ccc(CN3CCN(C)CC3)c(C(F)(F)F)c2)cc1NC(=O)c1cnc2[nH]ccc2c1
Which item exceeds the other in IC50, a or b ? Write down the label of the entry you select. a
